Each recorded value in this set is attributed to the Human Domainome abundance scans (Beltran et al. 2025).

B1: Protein S100-G, residues 1 to 79; numbered along this chain, P02633 (parent)
chain: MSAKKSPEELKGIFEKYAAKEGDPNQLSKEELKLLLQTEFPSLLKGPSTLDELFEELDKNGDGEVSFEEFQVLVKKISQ

# Variants of: B1
# ASSAY INFO: abundance fitness (aPCA) (normalised: wild type 0, dead -1); higher = more abundant; growth selection in yeast, the domain comes from the species named
# TEST SETTINGS: Bos taurus
abundance fitness below -0.2 gives condition not met; abundance fitness at or above it gives condition met.

MSAKKSPEELKGIFEKYAAKEGDPRQLSKEELKLLLQTEFPSLLKGPSTLDELFEELDKNGDGEVSFEEFQVLVKKISQ [N25R] = condition met
MSAKKSPEELKGIFEKYAAKEGDPNQLSKEELKLLLQTEFPSLLKGPSTLDELFEELDKNGDGEVSFEESQVLVKKISQ [F70S] = condition not met
MSAKKSPEELKGIFEKYAAKEGDPNQSSKEELKLLLQTEFPSLLKGPSTLDELFEELDKNGDGEVSFEEFQVLVKKISQ [L27S] = condition not met
MSAKKSPEELKGIFEKYVAKEGDPNQLSKEELKLLLQTEFPSLLKGPSTLDELFEELDKNGDGEVSFEEFQVLVKKISQ [A18V] = condition met
MSAKKSPEELKGIFEKYAAKEGDPNQLSKEELKLLLQTEFTSLLKGPSTLDELFEELDKNGDGEVSFEEFQVLVKKISQ [P41T] = condition met
MSAKKSPEELKGIFEKYAAKEGDPNQLSKEELKLLLQTEFPRLLKGPSTLDELFEELDKNGDGEVSFEEFQVLVKKISQ [S42R] = condition met
MSAKKSPEELKGIFEKYAAEEGDPNQLSKEELKLLLQTEFPSLLKGPSTLDELFEELDKNGDGEVSFEEFQVLVKKISQ [K20E] = condition met
